Sourced from patent US11504441B2

# tissue uptake at 24 h per record follows
test: in vivo; design: species or system mice; conditions: male, NODSCID 1L2RγKO, mouse, iv, total radioactivity, Blood uptake
observed.property: tissue uptake at 24 h (%ID/g)

molecule	readout.number
O=C(O)CCC[C@H](NC(=O)N[C@@H](CCCCNC(=O)[C@H](Cc1c2ccccc2cc2ccccc12)NC(=O)[C@H]1CC[C@H](CNC(=O)[C@H](CCCCNC(=O)CN2CCN(CC(=O)O)CCN(CC(=O)O)CCN(CC(=O)O)CC2)NC(=O)CNC(=O)CCCc2ccc(Cl)cc2)CC1)C(=O)O)C(=O)O [177Lu-HTK03153, metal not drawn]	7.44
O=C(O)CCC[C@H](NC(=O)N[C@@H](CCCCNC(=O)[C@H](Cc1c2ccccc2cc2ccccc12)NC(=O)[C@H]1CC[C@H](CNC(=O)CN2CCN(CC(=O)O)CCN(CC(=O)O)CCN(CC(=O)O)CC2)CC1)C(=O)O)C(=O)O [177Lu-HTK03149, metal not drawn]	0.12
COc1ccc(CCCC(=O)NCC(=O)N[C@@H](CCCCNC(=O)CN2CCN(CC(=O)O)CCN(CC(=O)O)CCN(CC(=O)O)CC2)C(=O)NC[C@H]2CC[C@H](C(=O)N[C@@H](Cc3c4ccccc4cc4ccccc34)C(=O)NCCCC[C@H](NC(=O)N[C@@H](CSCC(=O)O)C(=O)O)C(=O)O)CC2)cc1 [177Lu-HTK04048, metal not drawn]	0.68
COc1ccc(CCCC(=O)NCC(=O)N[C@@H](CCCCNC(=O)CN2CCN(CC(=O)O)CCN(CC(=O)O)CCN(CC(=O)O)CC2)C(=O)NC[C@H]2CC[C@H](C(=O)N[C@@H](Cc3c4ccccc4cc4ccccc34)C(=O)NCCCC[C@H](NC(=O)N[C@@H](CCCC(=O)O)C(=O)O)C(=O)O)CC2)cc1 [177Lu-HTK03170, metal not drawn]	0.59
COc1ccc(CCCC(=O)NCC(=O)N[C@@H](CCCCNC(=O)CN2CCN(CC(=O)O)CCN(CC(=O)O)CCN(CC(=O)O)CC2)C(=O)NC[C@H]2CC[C@H](C(=O)N[C@@H](Cc3c4ccccc4cc4ccccc34)C(=O)NCCCC[C@H](NC(=O)N[C@@H](COCC(=O)O)C(=O)O)C(=O)O)CC2)cc1 [177Lu-HTK04028, metal not drawn]	0.82

* * *

experiment: in vivo; parameters: species or system mice; settings: male, NODSCID 1L2RγKO, mouse, iv, total radioactivity, Brain uptake
# tissue uptake at 24 h per record follows

compound	tissue uptake at 24 h (%ID/g)
COc1ccc(CCCC(=O)NCC(=O)N[C@@H](CCCCNC(=O)CN2CCN(CC(=O)O)CCN(CC(=O)O)CCN(CC(=O)O)CC2)C(=O)NC[C@H]2CC[C@H](C(=O)N[C@@H](Cc3c4ccccc4cc4ccccc34)C(=O)NCCCC[C@H](NC(=O)N[C@@H](CSCC(=O)O)C(=O)O)C(=O)O)CC2)cc1 [177Lu-HTK04048, metal not drawn]	0.03
O=C(O)CCC[C@H](NC(=O)N[C@@H](CCCCNC(=O)[C@H](Cc1c2ccccc2cc2ccccc12)NC(=O)[C@H]1CC[C@H](CNC(=O)CN2CCN(CC(=O)O)CCN(CC(=O)O)CCN(CC(=O)O)CC2)CC1)C(=O)O)C(=O)O [177Lu-HTK03149, metal not drawn]	0.01
